# Relative activity (%) values compiled below
Assay Target: T1, CD8α Fc fusion protein (UniProt P01732 22-182, limits assumed)
T1 construct: Used as the coating antigen of the ELISAs; also called CD8α antigen; CD8α protein; not shown: Fc part
T1 sequence (P01732 22-182 limits assumed): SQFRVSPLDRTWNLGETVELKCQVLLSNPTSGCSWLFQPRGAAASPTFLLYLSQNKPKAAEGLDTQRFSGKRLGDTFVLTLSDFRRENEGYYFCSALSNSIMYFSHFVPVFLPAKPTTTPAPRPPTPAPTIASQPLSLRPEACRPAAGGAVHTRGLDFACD
Assay Remarks: ELISA, plate coated with CD8α Fc fusion protein, anti-His-HRP detection, 4-parameter fit; relative to C37
Description: The expression level and binding activity of each mutant were separately detected. […] After washing, an anti-His horseradish peroxidase-labeled antibody was added to allow reaction for 1 hour at room temperature. After washing, a chromogenic solution was added, and an absorption value was read at a wavelength of 450 nm. […]
Test Readout: Relative activity (%)

- Binder: "C37-T85S (histidine-tagged, section 1.2) (VHH, not shown: histidine tag) VHH: QLQLVESGGGLVQAGGSLRLSCAASGLTFEDYAIGWFRQAPGKEREGISCIRIYDGNTYSAESVKGRFTISSDNAKNQVYLQINSLKPEDTAVYYCAAGSYYSCSVYPDYDMDYWGKGTLVTVSS"
  Assay Value: "162%"
- Binder: "C37-SR (histidine-tagged) (VHH, not shown: histidine tag) VHH: QLQLVESGGGLVQAGGSLRLSCAASGLTFSDYAIGWFRQAPGKEREGISCIRIYDGNTYSAESVKGRFTISRDNAKNQVYLQINTLKPEDTAVYYCAAGSYYSCSVYPDYDMDYWGKGTLVTVSS"
  Assay Value: "42%"
- Binder: "C37-SRS (histidine-tagged) (VHH, not shown: histidine tag) VHH: QLQLVESGGGLVQAGGSLRLSCAASGLTFSDYAIGWFRQAPGKEREGISCIRIYDGNTYSAESVKGRFTISRDNAKNQVYLQINSLKPEDTAVYYCAAGSYYSCSVYPDYDMDYWGKGTLVTVSS"
  Assay Value: "33%"
